Entries and their measured Room temperature 24 h measured value follow.
assay overview: Stability of the analytes in rat plasma QC samples under different storage conditions
Type: in vitro ADME
reported conditions: middle QC level, nominal ng/mL: AST 200, FE 125, PRO 100, CH 200, PE 200, SAB 400, n = 6
Lab note: record the figure alone, no unit after it.

• COc1cc(/C=C/C(=O)O)ccc1O = 122.72
• O=Cc1ccc(O)c(O)c1 = 100.34
• O=C(/C=C/c1ccc(O)c(O)c1)O[C@@H]1C[C@](O)(C(=O)O)C[C@@H](O)[C@H]1O = 200.03
• C[C@@]12C[C@@]3(O)O[C@@H](O1)[C@]1(COC(=O)c4ccccc4)[C@H]3C[C@@]12O[C@@H]1O[C@H](CO)[C@@H](O)[C@H](O)[C@H]1O = 199.64

Turning now to a further record.
Req: Recorded Room temperature 24 h measured value of `C[C@@H]1O[C@@H](O[C@H]2C(=O)c3c(O)cc(O)cc3O[C@@H]2c2ccc(O)c(O)c2)[C@H](O)[C@H](O)[C@H]1O` , please.
Resp: 199.01

---

Entries and their measured AUC(0-inf) follow.
assay overview: Pharmacokinetics of six compounds in rat plasma after oral administration of PYQ (HPLC-MS/MS)
Type: in vivo, Sprague–Dawley rats
reported conditions: female, Sprague-Dawley, po, PYQ orally 8 mL/kg, non-compartmental, mean ± SD, n = 6
API: value field is a number in ng·h/mL; no unit string.

Below, each entry is followed by its recorded AUC(0-inf) result.
• C[C@@]12C[C@@]3(O)O[C@@H](O1)[C@]1(COC(=O)c4ccccc4)[C@H]3C[C@@]12O[C@@H]1O[C@H](CO)[C@@H](O)[C@H](O)[C@H]1O = 2220
• O=Cc1ccc(O)c(O)c1 = 1080
• COc1cc(/C=C/C(=O)O)ccc1O = 1480

Turning now to a further record.
Req: Recorded AUC(0-inf) of `C[C@@H]1O[C@@H](O[C@H]2C(=O)c3c(O)cc(O)cc3O[C@@H]2c2ccc(O)c(O)c2)[C@H](O)[C@H](O)[C@H]1O` , please.
Resp: 2090

---

Entries and their measured Room temperature 24 h measured value follow.
assay overview: Stability of the analytes in rat plasma QC samples under different storage conditions
Type: in vitro ADME
reported conditions: low QC level, nominal ng/mL: AST 100, FE 50, PRO 20, CH 100, PE 100, SAB 200, n = 6
Lab note: record the figure alone, no unit after it.

Below, each entry is followed by its recorded Room temperature 24 h measured value result.
- C[C@@H]1O[C@@H](O[C@H]2C(=O)c3c(O)cc(O)cc3O[C@@H]2c2ccc(O)c(O)c2)[C@H](O)[C@H](O)[C@H]1O [AST, astilbin]: 99.68
- O=Cc1ccc(O)c(O)c1 [PRO, protocatechualdehyde]: 20.81
- O=C(/C=C/c1ccc(O)c(O)c1)O[C@@H]1C[C@](O)(C(=O)O)C[C@@H](O)[C@H]1O [CH, chlorogenic acid]: 99.91
- C[C@@]12C[C@@]3(O)O[C@@H](O1)[C@]1(COC(=O)c4ccccc4)[C@H]3C[C@@]12O[C@@H]1O[C@H](CO)[C@@H](O)[C@H](O)[C@H]1O [PE, paeoniflorin]: 99.44

Req: Recorded Room temperature 24 h measured value of COc1cc(/C=C/C(=O)O)ccc1O [FE, ferulic acid] , please.
Resp: 49.14

Data provenance: paper PMC9727977
